IC50 tested on jack bean urease (Canavalia ensiformis): recorded values
Sequence (P07374 whole entry, looked up): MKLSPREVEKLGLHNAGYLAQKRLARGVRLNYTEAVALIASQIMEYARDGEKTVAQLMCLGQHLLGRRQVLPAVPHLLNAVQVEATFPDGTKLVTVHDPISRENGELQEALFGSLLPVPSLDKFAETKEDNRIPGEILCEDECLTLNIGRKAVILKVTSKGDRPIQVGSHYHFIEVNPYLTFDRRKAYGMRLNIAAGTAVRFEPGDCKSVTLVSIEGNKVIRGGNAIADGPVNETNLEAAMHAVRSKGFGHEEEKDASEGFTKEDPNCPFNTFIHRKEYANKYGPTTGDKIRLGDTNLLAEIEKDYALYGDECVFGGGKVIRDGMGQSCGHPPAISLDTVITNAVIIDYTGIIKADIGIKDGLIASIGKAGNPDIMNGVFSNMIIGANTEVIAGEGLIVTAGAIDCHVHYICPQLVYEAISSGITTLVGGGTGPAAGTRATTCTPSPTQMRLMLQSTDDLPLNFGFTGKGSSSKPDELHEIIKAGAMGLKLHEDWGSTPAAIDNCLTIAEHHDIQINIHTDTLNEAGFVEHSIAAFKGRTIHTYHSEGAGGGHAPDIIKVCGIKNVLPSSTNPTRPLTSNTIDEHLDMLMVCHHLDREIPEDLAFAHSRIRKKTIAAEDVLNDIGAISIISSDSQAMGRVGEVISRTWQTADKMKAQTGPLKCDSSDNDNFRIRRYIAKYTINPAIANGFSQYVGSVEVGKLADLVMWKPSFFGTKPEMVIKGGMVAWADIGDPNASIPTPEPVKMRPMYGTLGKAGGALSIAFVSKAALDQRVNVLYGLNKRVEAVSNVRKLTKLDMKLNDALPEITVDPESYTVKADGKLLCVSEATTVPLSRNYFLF
Form entry: value (µM) — number only.

Entry CC(C(=O)Nc1ccc(Cl)cc1)N1CCN(c2ncccc2[N+](=O)[O-])CC1 (stereo not shown) : reported IC50 = ? 7.38

Entry O=C(CN1CCN(c2ncccc2[N+](=O)[O-])CC1)Nc1ccc(Cl)cc1 : reported IC50 = ? 8.25

Entry O=C(CN1CCN(c2ncccc2[N+](=O)[O-])CC1)Nc1ccccc1 : reported IC50 = ? 3.58

Entry O=C(CN1CCN(c2ncccc2[N+](=O)[O-])CC1)Nc1cccc([N+](=O)[O-])c1 : reported IC50 = ? 2.56

Entry COc1ccc(NC(=O)CN2CCN(c3ncccc3[N+](=O)[O-])CC2)cc1 : reported IC50 = ? 5.21

Entry O=C(CN1CCN(c2ncccc2[N+](=O)[O-])CC1)Nc1ccc(Br)cc1 : reported IC50 = ? 8.43

Entry Cc1ccc(NC(=O)CN2CCN(c3ncccc3[N+](=O)[O-])CC2)cc1 : reported IC50 = ? 9.37

Entry COc1ccc(NC(=O)C(C)N2CCN(c3ncccc3[N+](=O)[O-])CC2)cc1 (stereo not shown) : reported IC50 = ? 5.95

Entry COc1ccccc1NC(=O)C(C)N1CCN(c2ncccc2[N+](=O)[O-])CC1 (stereo not shown) : reported IC50 = ? 5.32

Entry CC(C(=O)Nc1ccccc1Br)N1CCN(c2ncccc2[N+](=O)[O-])CC1 (stereo not shown) : reported IC50 = ? 6.74

Entry O=C(CN1CCN(c2ncccc2[N+](=O)[O-])CC1)Nc1ccc([N+](=O)[O-])cc1 : reported IC50 = ? 4.19

Entry Cc1cccc(NC(=O)CN2CCN(c3ncccc3[N+](=O)[O-])CC2)c1 : reported IC50 = ? 7.14

Entry CC(C(=O)Nc1ccc([N+](=O)[O-])cc1)N1CCN(c2ncccc2[N+](=O)[O-])CC1 (stereo not shown) : reported IC50 = ? 6.13

Entry CC(C(=O)Nc1cccc(Cl)c1)N1CCN(c2ncccc2[N+](=O)[O-])CC1 (stereo not shown) : reported IC50 = ? 6.7

Entry O=C(CN1CCN(c2ncccc2[N+](=O)[O-])CC1)Nc1cccc(Br)c1 : reported IC50 = ? 5.24

Entry O=C(CN1CCN(c2ncccc2[N+](=O)[O-])CC1)Nc1ccccc1Br : reported IC50 = ? 4.47

Entry Cc1ccc(NC(=O)C(C)N2CCN(c3ncccc3[N+](=O)[O-])CC2)cc1 (stereo not shown) : reported IC50 = ? 5.65

Entry CC(C(=O)Nc1ccccc1)N1CCN(c2ncccc2[N+](=O)[O-])CC1 (stereo not shown) : reported IC50 = ? 7.41

Entry CC(C(=O)Nc1cccc([N+](=O)[O-])c1)N1CCN(c2ncccc2[N+](=O)[O-])CC1 (stereo not shown) : reported IC50 = ? 7.66
